Consider the following compounds; for each one, report its pIC50.
# tested on: Akt/PKB (Homo sapiens)
# Sequence (P31749 whole entry): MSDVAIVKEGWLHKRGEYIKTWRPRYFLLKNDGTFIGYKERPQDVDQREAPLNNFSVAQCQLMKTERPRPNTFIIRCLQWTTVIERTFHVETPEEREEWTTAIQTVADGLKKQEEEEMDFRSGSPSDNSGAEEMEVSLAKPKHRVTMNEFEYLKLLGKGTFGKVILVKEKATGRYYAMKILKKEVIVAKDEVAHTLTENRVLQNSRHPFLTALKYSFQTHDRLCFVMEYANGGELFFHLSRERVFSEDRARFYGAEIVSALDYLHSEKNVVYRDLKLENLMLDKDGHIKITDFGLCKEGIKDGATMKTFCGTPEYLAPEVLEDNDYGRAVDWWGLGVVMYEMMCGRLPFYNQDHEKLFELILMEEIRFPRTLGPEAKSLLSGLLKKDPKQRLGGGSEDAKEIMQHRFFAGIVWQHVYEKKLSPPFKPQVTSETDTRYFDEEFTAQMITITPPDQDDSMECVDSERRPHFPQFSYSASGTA
# measurement protocol: Kinase specificity panel: Akt/PKB
# Assay type: biochemical
# condition: Table 2
pIC50: −log10 of the molar value.

q: Look up pIC50 for this compound: COc1ccc(Nc2nccc(-c3sc(C)nc3C)n2)cc1 [Compound 26]
a: < 4.30

q: Look up pIC50 for this compound: Cc1nc(C)c(-c2ccnc(Nc3ccc(F)cc3F)n2)s1 [Compound 9]
a: < 4.30

q: Look up pIC50 for this compound: Cc1nc(N)sc1-c1ccnc(Nc2cccc(O)c2)n1 [Compound 116]
a: 4.28

q: Look up pIC50 for this compound: Cc1nc(C)c(-c2ccnc(Nc3ccc(C(F)(F)F)cc3)n2)s1 [Compound 15]
a: < 4.30

q: Look up pIC50 for this compound: Cc1nc(C)c(-c2ccnc(Nc3cccc([N+](=O)[O-])c3)n2)s1 [Compound 5]
a: < 4.30

q: Look up pIC50 for this compound: Cc1nc(C)c(-c2ccnc(Nc3cccc(C#N)c3)n2)s1 [Compound 36]
a: < 4.30

q: Look up pIC50 for this compound: Cc1nc(N)sc1-c1ccnc(Nc2ccc(I)c([N+](=O)[O-])c2)n1 [Compound 117]
a: 4.15

====

# tested on: CDK1/Cyclin B (Homo sapiens)
# Sequence (P06493 whole entry, species assumed): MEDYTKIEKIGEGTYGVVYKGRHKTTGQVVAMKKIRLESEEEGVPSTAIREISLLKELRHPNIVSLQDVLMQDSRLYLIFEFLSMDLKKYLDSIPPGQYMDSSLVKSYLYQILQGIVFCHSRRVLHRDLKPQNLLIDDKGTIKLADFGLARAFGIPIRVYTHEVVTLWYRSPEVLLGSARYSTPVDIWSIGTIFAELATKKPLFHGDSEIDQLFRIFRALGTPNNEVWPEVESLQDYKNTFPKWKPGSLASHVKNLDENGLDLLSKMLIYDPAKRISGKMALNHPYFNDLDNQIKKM
# Sequence (P14635 whole entry partner, species assumed): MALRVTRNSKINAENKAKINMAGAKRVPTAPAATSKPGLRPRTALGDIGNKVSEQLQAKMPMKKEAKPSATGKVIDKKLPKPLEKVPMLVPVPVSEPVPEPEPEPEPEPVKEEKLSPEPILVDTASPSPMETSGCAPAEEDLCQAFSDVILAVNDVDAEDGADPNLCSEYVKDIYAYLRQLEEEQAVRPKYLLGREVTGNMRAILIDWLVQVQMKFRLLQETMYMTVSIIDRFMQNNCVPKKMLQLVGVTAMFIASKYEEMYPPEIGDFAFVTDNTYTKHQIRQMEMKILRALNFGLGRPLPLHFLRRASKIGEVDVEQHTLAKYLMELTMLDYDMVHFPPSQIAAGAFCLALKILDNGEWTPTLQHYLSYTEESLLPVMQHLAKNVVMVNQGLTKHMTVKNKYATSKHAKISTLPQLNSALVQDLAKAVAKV
# measurement protocol: CDK1/cyclin B kinase assay (GST-Rb phosphorylation);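 further: Enzyme: His-tagged CDK1/Cyclin B co-expressed in baculovirus-infected Sf9 insect cells, purified via metal-chelate chromatography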
Consider the following compounds; for each one, report its IC50.

q: Look up IC50 for this compound: Cc1cc(Nc2nccc(-c3sc(=O)n(C)c3C)n2)ccc1Cl
a: 1.8 µM

q: Look up IC50 for this compound: COc1cccc(Nc2nccc(-c3sc(N)nc3C)n2)c1
a: 2.8 µM

q: Look up IC50 for this compound: CCCCNc1nc(C)c(-c2ccnc(Nc3ccc(F)cc3)n2)s1
a: 47 µM

q: Look up IC50 for this compound: CCNc1nc(C)c(-c2ccnc(Nc3ccc(C)c([N+](=O)[O-])c3)n2)s1
a: 41 µM

q: Look up IC50 for this compound: Cc1c(-c2ccnc(Nc3cccc(O)c3)n2)sc(=O)n1C
a: 0.37 µM

q: Look up IC50 for this compound: CCNc1nc(C)c(-c2ccnc(Nc3cccc(OC)c3)n2)s1
a: > 100 µM

q: Look up IC50 for this compound: Cc1nc(C)c(-c2ccnc(Nc3cccc(Cl)c3)n2)s1
a: 32 µM

q: Look up IC50 for this compound: COc1ccc(Nc2nccc(-c3sc(C)nc3C)n2)cc1N(C)C
a: 0.47 µM

q: Look up IC50 for this compound: Cc1nc(C)c(-c2ccnc(Nc3ccc(N(C)C)cc3)n2)s1
a: 7.3 µM

====

# tested on: CDK9/cyclin T1 (Homo sapiens, UniProt P50750)
# Sequence (P50750 whole entry): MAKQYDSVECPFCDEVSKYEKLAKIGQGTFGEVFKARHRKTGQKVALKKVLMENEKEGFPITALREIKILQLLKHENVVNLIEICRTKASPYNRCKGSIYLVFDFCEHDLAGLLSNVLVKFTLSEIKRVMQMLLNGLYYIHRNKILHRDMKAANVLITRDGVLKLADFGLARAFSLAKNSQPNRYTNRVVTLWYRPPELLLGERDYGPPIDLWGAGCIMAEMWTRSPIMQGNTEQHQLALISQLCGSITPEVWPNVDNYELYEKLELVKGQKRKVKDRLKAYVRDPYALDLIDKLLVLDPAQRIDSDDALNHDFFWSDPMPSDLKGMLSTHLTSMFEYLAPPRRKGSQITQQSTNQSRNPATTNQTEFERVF
# Sequence (O60563 whole entry partner): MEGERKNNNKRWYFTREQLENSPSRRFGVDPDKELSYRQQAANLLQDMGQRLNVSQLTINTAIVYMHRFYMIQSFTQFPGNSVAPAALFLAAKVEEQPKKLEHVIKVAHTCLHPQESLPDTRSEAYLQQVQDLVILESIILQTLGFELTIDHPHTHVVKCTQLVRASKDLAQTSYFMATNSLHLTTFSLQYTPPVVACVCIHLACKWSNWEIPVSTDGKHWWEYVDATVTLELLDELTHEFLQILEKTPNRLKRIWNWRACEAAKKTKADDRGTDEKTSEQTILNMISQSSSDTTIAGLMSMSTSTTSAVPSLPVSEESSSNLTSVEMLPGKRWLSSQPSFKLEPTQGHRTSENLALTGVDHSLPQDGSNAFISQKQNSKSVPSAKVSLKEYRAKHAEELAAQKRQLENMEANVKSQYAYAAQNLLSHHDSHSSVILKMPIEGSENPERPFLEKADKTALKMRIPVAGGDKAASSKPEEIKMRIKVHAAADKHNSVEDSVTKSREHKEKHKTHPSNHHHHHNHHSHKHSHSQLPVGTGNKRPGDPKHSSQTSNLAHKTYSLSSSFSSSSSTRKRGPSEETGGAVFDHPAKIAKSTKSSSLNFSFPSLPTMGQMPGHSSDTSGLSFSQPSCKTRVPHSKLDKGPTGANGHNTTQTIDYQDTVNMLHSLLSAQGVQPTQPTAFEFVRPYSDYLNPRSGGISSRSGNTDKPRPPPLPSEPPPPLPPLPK
# measurement protocol: CDK9 assay (CTD peptide substrate)
# Assay type: biochemical
# condition: Table 3; read-out: Average IC50 CDK9 cyclin T1
value type: IC50 (nM)
# value in nM; strip the unit string

q: Any idea what IC50 came out for CNc1nc(C)c(-c2ccnc(Nc3ccc(O)c([N+](=O)[O-])c3)n2)s1 on CDK9/cyclin T1 (Homo sapiens, UniProt P50750)?
a: 61

q: Any idea what IC50 came out for CCCCNc1nc(C)c(-c2ccnc(Nc3ccc(F)cc3)n2)s1 on CDK9/cyclin T1 (Homo sapiens, UniProt P50750)?
a: 23000

q: Any idea what IC50 came out for Cc1nc(N)sc1-c1ccnc(Nc2ccc(O)cc2)n1 on CDK9/cyclin T1 (Homo sapiens, UniProt P50750)?
a: 45

q: Any idea what IC50 came out for CNc1nc(C)c(-c2ccnc(Nc3cccc([N+](=O)[O-])c3)n2)s1 on CDK9/cyclin T1 (Homo sapiens, UniProt P50750)?
a: 190
